System: NK-YS (IL-2 2.5 ng/mL)
Assay: percent inhibition of viability; higher = more inhibition;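 also: normalised to DMSO-only wells as negative and benzethonium chloride as positive control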
Settings: 72 h; 0.1 nM
measure: percent inhibition of viability (%)
// units = %; emit number, no label

INSERT INTO results (molecule, numeric_result) VALUES
  ('Oc1ccc2c(c1)CC[C@H](c1ccccc1)[C@@H]2c1ccc(OCCN2CCCC2)cc1 [Lasofoxifene] (max concentration tested 1000 nM)', 1.84),
  ('CCc1cc2c(cc1N1CCC(N3CCOCC3)CC1)C(C)(C)c1[nH]c3cc(C#N)ccc3c1C2=O [Alectinib] (max concentration tested 1000 nM)', -5.67),
  ('CC[C@@H]1C(=O)N(C)c2cnc(Nc3ccc(C(=O)NC4CCN(C)CC4)cc3OC)nc2N1C1CCCC1 [BI 2536] (max concentration tested 1000 nM)', 1.37);

As a next step, examine the molecule that follows.
// field: percent inhibition of viability; key: CC(=O)O[C@H]1C(=O)[C@@]2(C)[C@H]([C@H](OC(=O)c3ccccc3)[C@]3(O)C[C@H](OC(=O)[C@H](O)[C@@H](NC(=O)c4ccccc4)c4ccccc4)C(C)=C1C3(C)C)[C@]1(OC(C)=O)CO[C@@H]1C[C@@H]2O [Paclitaxel] (max concentration tested 1000 nM) ; value = -2.51

###

Test system: DERL-7 (IL-2 2.5 ng/mL)
Experiment: percent inhibition of viability; higher = more inhibition
Conditions: 72 h; 1 nM
Catalogue of molecules with associated percent inhibition of viability
// units = %; emit number, no label

Answered cases to consult:
INSERT INTO results (molecule, units_symbol, numeric_result) VALUES
  ('CC1(C)CNc2cc(NC(=O)c3cccnc3NCc3ccncc3)ccc21 [Motesanib] (max concentration tested 10000 nM)', '%', 8.61),
  ('N#Cc1ccc(COC[C@H]2O[C@@H](n3c(NCc4ccc(Cl)c(Cl)c4)nc4c(N)ncnc43)[C@H](O)[C@@H]2O)cc1 (max concentration tested 10000 nM)', '%', 4.78),
  ('c1ccc2c(CCNc3ccc(Nc4ccncc4)cc3)c[nH]c2c1 [Serdemetan] (max concentration tested 10000 nM)', '%', 1.57),
  ('Cc1cc(C)c(CNC(=O)c2cc(-c3ccc(CN4CCOCC4)cc3)cc3c2cnn3C2CCCC2)c(=O)[nH]1 [EPZ-5687] (max concentration tested 10000 nM)', '%', -1.37),
  ('COc1cccc2c1C(=O)c1c(O)c3c(c(O)c1C2=O)C[C@@](O)(C(=O)CO)C[C@@H]3O[C@H]1C[C@H](N)[C@H](O)[C@H](C)O1 [Doxorubicin] (max concentration tested 1000 nM)', '%', -4.85),
  ('Nc1nccc(-c2c(-c3ccc(F)cc3)ncn2C2CCCCC2)n1 (max concentration tested 10000 nM)', '%', -3.56);

As a next step, examine the molecule that follows.
// field: percent inhibition of viability; key: COc1cc(N2CCC(N3CCN(C)CC3)CC2)ccc1Nc1ncnc(Nc2ccccc2S(=O)(=O)C(C)C)n1 [ASP3026] (max concentration tested 10000 nM) ; value = 0.73

###

Catalogue of compounds with associated percent inhibition of viability
System: normal primary NK cells, pool 1 (3 donors) (IL-2 2.5 ng/mL)
Experiment: percent inhibition of viability; higher = more inhibition
Details: 72 h; 100 nM
// units = %; emit number, no label

// field: percent inhibition of viability; key: Cc1ccc(NC(=O)c2ccc(CN3CCN(C)CC3)cc2)cc1Nc1nc(-c2cccnc2)cs1 [Masitinib] (max concentration tested 10000 nM) ; value = -4.81

Values compiled from the supplement of paper PMC5908809.
